Reference for the values: patent US10246453B2

# TEST_SYSTEM: NaV1.5 (Homo sapiens (Human), UniProt Q14524)
# Sequence (Q14524 other isoform, or with tags, fused parts or gaps): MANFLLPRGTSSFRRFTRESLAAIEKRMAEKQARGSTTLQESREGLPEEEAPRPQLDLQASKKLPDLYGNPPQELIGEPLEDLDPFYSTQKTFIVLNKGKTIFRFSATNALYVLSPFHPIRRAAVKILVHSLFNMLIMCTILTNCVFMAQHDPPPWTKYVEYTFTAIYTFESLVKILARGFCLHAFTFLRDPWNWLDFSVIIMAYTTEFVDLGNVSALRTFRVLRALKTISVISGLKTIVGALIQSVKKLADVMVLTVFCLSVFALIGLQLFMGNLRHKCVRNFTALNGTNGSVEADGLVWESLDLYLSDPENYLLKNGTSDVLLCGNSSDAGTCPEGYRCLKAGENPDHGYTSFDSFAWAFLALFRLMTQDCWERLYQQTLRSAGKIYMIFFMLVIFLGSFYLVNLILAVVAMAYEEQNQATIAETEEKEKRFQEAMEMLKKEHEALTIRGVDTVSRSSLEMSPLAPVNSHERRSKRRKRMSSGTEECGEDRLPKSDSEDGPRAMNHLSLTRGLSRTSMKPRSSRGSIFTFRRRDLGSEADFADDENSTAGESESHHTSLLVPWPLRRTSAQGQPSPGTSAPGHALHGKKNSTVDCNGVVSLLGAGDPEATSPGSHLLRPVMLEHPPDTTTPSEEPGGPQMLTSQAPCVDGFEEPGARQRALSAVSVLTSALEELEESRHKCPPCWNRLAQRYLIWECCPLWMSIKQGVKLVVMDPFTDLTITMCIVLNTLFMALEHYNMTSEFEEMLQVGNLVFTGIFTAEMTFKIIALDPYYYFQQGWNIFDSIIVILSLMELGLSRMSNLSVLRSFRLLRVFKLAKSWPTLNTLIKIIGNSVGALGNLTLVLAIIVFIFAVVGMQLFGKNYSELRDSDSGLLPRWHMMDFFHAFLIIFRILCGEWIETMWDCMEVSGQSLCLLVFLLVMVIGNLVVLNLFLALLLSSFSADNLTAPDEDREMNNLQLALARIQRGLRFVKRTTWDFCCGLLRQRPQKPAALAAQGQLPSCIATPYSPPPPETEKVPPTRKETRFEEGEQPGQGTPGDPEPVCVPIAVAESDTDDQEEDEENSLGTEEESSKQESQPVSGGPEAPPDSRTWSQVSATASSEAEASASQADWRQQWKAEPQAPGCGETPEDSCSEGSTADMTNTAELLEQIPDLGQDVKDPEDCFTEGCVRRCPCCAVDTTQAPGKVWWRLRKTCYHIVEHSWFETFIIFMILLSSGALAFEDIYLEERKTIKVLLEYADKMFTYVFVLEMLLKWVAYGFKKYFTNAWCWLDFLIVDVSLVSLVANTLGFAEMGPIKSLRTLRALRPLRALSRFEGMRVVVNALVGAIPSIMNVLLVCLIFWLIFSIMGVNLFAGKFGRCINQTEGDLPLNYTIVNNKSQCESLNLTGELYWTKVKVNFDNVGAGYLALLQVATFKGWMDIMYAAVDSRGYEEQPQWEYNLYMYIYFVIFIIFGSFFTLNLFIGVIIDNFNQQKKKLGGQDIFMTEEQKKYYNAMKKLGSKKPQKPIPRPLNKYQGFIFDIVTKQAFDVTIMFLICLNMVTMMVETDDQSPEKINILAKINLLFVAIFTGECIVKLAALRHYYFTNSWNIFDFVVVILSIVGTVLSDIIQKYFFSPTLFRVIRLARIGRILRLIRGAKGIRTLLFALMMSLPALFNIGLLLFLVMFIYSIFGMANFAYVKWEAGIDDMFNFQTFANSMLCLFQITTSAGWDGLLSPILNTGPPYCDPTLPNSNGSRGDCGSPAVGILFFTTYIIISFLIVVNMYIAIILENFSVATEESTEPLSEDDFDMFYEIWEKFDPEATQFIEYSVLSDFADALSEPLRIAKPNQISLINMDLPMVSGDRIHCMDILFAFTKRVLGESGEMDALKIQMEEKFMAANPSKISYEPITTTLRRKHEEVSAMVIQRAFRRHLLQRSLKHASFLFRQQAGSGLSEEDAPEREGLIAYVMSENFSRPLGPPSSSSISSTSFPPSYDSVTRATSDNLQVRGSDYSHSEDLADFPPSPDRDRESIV
# PROTOCOL_NOTES: Sodium Influx Assay (Flux), NaV1.5
# CONDITION_SET: read-out: Flux NaV1.5 IC50; Trex HEK293 cells, ANG2 dye; arithmetic mean
Counter-ions that a name gives are not always drawn.
ASSAY_READOUT: IC50

- Cc1nc(CN2CC[C@H](N(C)c3cc(F)c(S(=O)(=O)Nc4cscn4)cc3C)C2)co1: > 30 µM
- CN(c1cc(F)c(S(=O)(=O)Nc2cscn2)cc1Cl)[C@H]1CCN(Cc2nc(C(F)F)ccc2F)C1 [Example 163, formate]: > 30 µM
- Cc1cc(S(=O)(=O)Nc2cscn2)c(F)cc1N(C)[C@H]1CCN(Cc2ccn(C)n2)C1 [Example 111, formate]: > 30 µM
- Cc1cc(S(=O)(=O)Nc2cscn2)c(F)cc1N(C)[C@H]1CCN(Cc2coc(C(C)C)n2)C1: > 30 µM
- O=S(=O)(Nc1nccs1)c1ccc(N[C@@H]2CCN(Cc3ccccc3)C2)c(Cl)c1: > 30 µM

---

# TEST_SYSTEM: NaV1.5 (Homo sapiens (Human))
# PROTOCOL_NOTES: Sodium Influx Assay (Flux), NaV1.5
# CONDITION_SET: read-out: Flux NaV1.5 IC50; Trex HEK293 cells, ANG2 dye; arithmetic mean
pIC50: −log10 of the molar value. Where a name gives a salt, the structure may show the parent alone.
Give true (1) when the value for pIC50 is at least 5. Give false (0) when it is less.

• C[C@H](c1ccccc1)N1CCC(Oc2cc(F)c(S(=O)(=O)Nc3cscn3)c(F)c2)CC1 [Example 291, 2,2,2-trifluoroacetate] = false (0)
• CN(c1cc(F)c(S(=O)(=O)Nc2cscn2)cc1Cl)[C@@H]1CCN(Cc2ccccc2)C1 = false (0)
• CN(c1cc(F)c(S(=O)(=O)Nc2cscn2)cc1F)[C@H]1CCN(Cc2ccccc2)C1 [Example 293, 2,2,2-trifluoroacetate] = false (0)
• CN(c1cc(F)c(S(=O)(=O)Nc2cscn2)cc1Cl)[C@H]1CCN(Cc2cc(Cl)ccc2F)C1 = true (1)
• O=S(=O)(Nc1cscn1)c1cc(Cl)c(N[C@@H]2CCN(Cc3ccccc3)C2)cc1F = false (0)
• CC1(C)CNCCC1Oc1ccc(S(=O)(=O)Nc2ncns2)cc1Cl (stereo not shown) [Example 1, 2,2,2-trifluoroacetate] = false (0)
• O=S(=O)(Nc1nccs1)c1ccc(O[C@@H]2C[C@H]3CC[C@@H](C2)N3Cc2ccccc2)c(Cl)c1 = false (0)
• CN(c1cc(F)c(S(=O)(=O)Nc2cscn2)c(F)c1)[C@H]1CCN(Cc2ccccc2)C1 [Example 286, formate] = true (1)
• Cc1cc(S(=O)(=O)Nc2cscn2)c(F)cc1N(C)[C@H]1CCN(Cc2csc(C(F)(F)F)n2)C1 = false (0)
• Cc1cc(S(=O)(=O)Nc2cscn2)c(F)cc1O[C@H]1CCN(Cc2ccccc2)C1 [Example 273, 2,2,2-trifluoroacetate] = true (1)
• O=S(=O)(Nc1nccs1)c1ccc(OC2CCN(Cc3cccc(OC(F)F)c3)CC2)c(Cl)c1 = true (1)
• CN(c1ccc(S(=O)(=O)Nc2nccs2)cc1Cl)[C@H]1CCN(Cc2ccccc2)C1 = false (0)

---

# TEST_SYSTEM: NaV1.5 (Homo sapiens (Human), UniProt Q14524)
# PROTOCOL_NOTES: Sodium Influx Assay (Flux), NaV1.5
# CONDITION_SET: read-out: Flux NaV1.5 IC50; Trex HEK293 cells, ANG2 dye; arithmetic mean
pIC50: −log10 of the molar value.
Let's look at some molecules and their measured pIC50.
ASSAY_READOUT: pIC50

• CN(c1cc(F)c(S(=O)(=O)Nc2cscn2)cc1Cl)[C@H]1CCN(Cc2cccc(C(F)F)c2)C1 [Example 193] = 5.04
• C[C@@H](c1ccccc1)N1CC[C@H](N(C)c2ccc(S(=O)(=O)Nc3nccs3)cc2Cl)C1 [Example 42] = 5.04
• CN(c1cc(F)c(S(=O)(=O)Nc2cscn2)cc1Cl)[C@H]1CCN(Cc2ccc(C(F)(F)F)o2)C1 [Example 164, 2,2,2-trifluoroacetate] = 4.89
• Cc1cc(S(=O)(=O)Nc2cscn2)c(F)cc1N(C)[C@H]1CCN(Cc2cccc(C)c2F)C1 [Example 127, 2,2,2-trifluoroacetate] = 4.99
• Cc1cc(S(=O)(=O)Nc2cnsc2)c(F)cc1N(C)[C@H]1CCN(Cc2ccccc2)C1 [Example 307] = 5.01
• Cc1ccnc(CN2CCC(Oc3ccc(S(=O)(=O)Nc4nccs4)cc3Cl)CC2)c1 [Example 14] = 4.97
